Tested on: CCRF-CEM leukemia
Experiment: NCI-60 one-dose screen, 48 h
Details: 10 µM unless noted
The panel holds about 83,000 compounds, 20% with a hit somewhere; the sample as a whole holds those more often. Calls of active or inactive are those of the source. Rule for the calls: active = growth percent below 10; inactive = the rest.
Answer with one of the outcomes given here: label 1 = active, label 0 = inactive

Worked examples follow.
> print(dat)
                                   molecule  category
1  O=C(O)CCCN1C(=O)/C(=C/C(Cl)=C/c2ccccc2)SC1=S   label 1
2         COc1ccc2nc3ccc(OC)cc3c(SCCCN)c2c1   label 0

Here's the next entry for you.
INPUT: Please indicate how the test categorized `O=C1c2c(c3c4ccccc4[nH]c3c3ccc4ccccc4c23)C(=O)N1CCN1CCCCC1` .
OUTPUT: label 1

Origin of measurements: PubChem BioAssay (NCI)
